Target: HCV NS5B polymerase 1b BK strain (Hepatitis C virus genotype 1b, UniProt P26663)
Construct: six-histidine tag; made in house; host or cells: E. coli
Sequence (P26663 2420-2989): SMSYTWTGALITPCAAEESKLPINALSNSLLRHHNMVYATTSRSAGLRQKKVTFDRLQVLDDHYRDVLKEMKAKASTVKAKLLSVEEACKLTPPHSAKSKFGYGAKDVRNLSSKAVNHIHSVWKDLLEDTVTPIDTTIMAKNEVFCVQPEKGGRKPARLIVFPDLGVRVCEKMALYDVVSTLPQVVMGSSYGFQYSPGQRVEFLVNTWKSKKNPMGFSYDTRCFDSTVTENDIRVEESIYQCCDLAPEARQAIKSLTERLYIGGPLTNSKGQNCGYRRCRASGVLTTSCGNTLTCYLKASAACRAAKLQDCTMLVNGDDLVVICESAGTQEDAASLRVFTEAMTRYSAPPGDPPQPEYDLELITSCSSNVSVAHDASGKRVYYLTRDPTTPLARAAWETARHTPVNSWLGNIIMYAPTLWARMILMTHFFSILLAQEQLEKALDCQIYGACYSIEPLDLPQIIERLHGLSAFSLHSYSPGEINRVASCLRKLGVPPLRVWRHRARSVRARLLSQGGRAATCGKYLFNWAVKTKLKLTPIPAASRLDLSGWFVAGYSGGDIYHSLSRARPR
Experiment: HCV NS5B polymerase enzymatic inhibition assay, strain 1b BK
Assay type: biochemical
Conditions: enzyme, strain 1b BK; read-out: HCV Polymerase Strain 1b BK IC50
Consider the following compounds and their measured pIC50 readings.
Schema: pIC50 number; meaning minus log10 of the concentration expressed in molar units.

Q. Consider the compound shown here: "CS(=O)(=O)N(CC1CCCCC1)c1cc2oc(-c3ccc(F)cc3)c(-c3ncc[nH]3)c2cc1C1CC1" What is its recorded pIC50?
A. 6.96

Q. Consider the compound shown here: "CCOC(=O)CN(c1cc2oc(-c3ccc(F)cc3)c(-c3ncc[nH]3)c2cc1C1CC1)S(C)(=O)=O" What is its recorded pIC50?
A. 6.82

Q. Consider the compound shown here: "CS(=O)(=O)N(CCCc1cc(O)no1)c1cc2oc(-c3ccc(F)cc3)c(-c3ncc[nH]3)c2cc1C1CC1" What is its recorded pIC50?
A. 7.96

Q. Consider the compound shown here: "CS(=O)(=O)N(CCCN)c1cc2oc(-c3ccc(F)cc3)c(-c3ncc[nH]3)c2cc1C1CC1" What is its recorded pIC50?
A. 7.29

---

Test system: HCV 1a-H77 subgenomic replicon
Assay: microbe, parasite or virus in culture
Format: cell-based, HCV genotype 1a
Conditions: Hepatitis C virus, stable replicon, strain 1a H77, 5% FBS, no human plasma; read-out: 1a H77 5% FBS EC50
pEC50: −log10 of the molar value.
// 0 (no) strictly below 7 in pEC50; 1 (yes) otherwise

Reference set, count: 6
CS(=O)(=O)N(CCCCF)c1cc2oc(-c3ccc(F)cc3)c(-c3ncc[nH]3)c2cc1C1CC1 [Example 83] = 1 (yes)
CS(=O)(=O)N(CCCc1cc(O)no1)c1cc2oc(-c3ccc(F)cc3)c(-c3ncc[nH]3)c2cc1C1CC1 [Example 7] = 1 (yes)
CS(=O)(=O)N(Cc1ccccc1)c1ccc2c(-c3ncc[nH]3)c(-c3ccccc3)oc2c1 [Example 21] = 0 (no)
[2H]C([2H])(CCCCC)N(c1cc2oc(-c3ccc(F)cc3)c(-c3ncc[nH]3)c2cc1C1CC1)S(C)(=O)=O [Example 113] = 1 (yes)
CC[S+]([O-])CCCN(c1cc2oc(-c3ccc(F)cc3)c(C3=NOCCN3)c2cc1C1CC1)S(C)(=O)=O (centres unmarked) [Example 144] = 1 (yes)
CS(=O)(=O)N(CCCc1noc(=O)[nH]1)c1cc2oc(-c3ccc(F)cc3)c(C3=NOCCN3)c2cc1C1CC1 [Example 182] = 0 (no)

Q. In plain terms: is recorded pEC50 at least 7 for CS(=O)(=O)CCN(c1cc2oc(-c3ccc(F)cc3)c(C3=NOCCN3)c2cc1C1CC1)S(C)(=O)=O [Example 9] ?
A. 1 (yes)

---

Tested on: HCV 1a-H77 subgenomic replicon
Test: microbe, parasite or virus in culture
Format: cell-based, HCV genotype 1a
Settings: Hepatitis C virus, stable replicon, strain 1a H77, 5% FBS, no human plasma; read-out: 1a H77 5% FBS EC50
// classify: if (EC50 < 30 nM) Yes else No

CS(=O)(=O)CCCCN(c1cc2oc(-c3ccc(F)cc3)c(-c3ncc[nH]3)c2cc1C1CC1)S(C)(=O)=O = Yes
CS(=O)(=O)N(Cc1cnc(-c2cccc(CO)c2)s1)c1ccc2c(-c3ncc[nH]3)c(-c3ccccc3)oc2c1 = No
CCCCN(c1cc2oc(-c3ccc(F)cc3)c(-c3ncc[nH]3)c2cc1C1CC1)S(C)(=O)=O = No
Cn1ccc2cc(-c3ncc(CN(c4ccc5c(-c6ncc[nH]6)c(-c6ccccc6)oc5c4)S(C)(=O)=O)s3)ccc21 = No
CCS(=O)(=O)CCCN(c1cc2oc(-c3ccc(F)cc3)c(C3=NOCCN3)c2cc1C1CC1)S(C)(=O)=O = Yes

Q. Is EC50 strictly under 30 nM for the entry "Cn1cc(-c2ncc(CN(c3ccc4c(-c5ncc[nH]5)c(-c5ccccc5)oc4c3)S(C)(=O)=O)s2)cn1" ?
A. No

Q. Is EC50 strictly under 30 nM for the entry "CSCCN(c1cc2oc(-c3ccc(F)cc3)c(-c3ncc[nH]3)c2cc1C1CC1)S(C)(=O)=O" ?
A. Yes

---

Target: HCV NS5B polymerase 1b BK strain (Hepatitis C virus genotype 1b)
Construct: six-histidine tag; made in house; host or cells: E. coli
Assay: HCV NS5B polymerase enzymatic inhibition assay, strain 1b BK
Assay type: biochemical
Conditions: enzyme, strain 1b BK; read-out: HCV Polymerase Strain 1b BK IC50
measuredProperty: IC50 (nM)
Only the number, expressed in nM, is required.

Record excerpt, results attached:
COc1ccc(CN(c2cc3oc(-c4ccc(F)cc4)c(C4=NOCC(=O)N4)c3cc2C2CC2)S(C)(=O)=O)cc1 = 930
COCCCN(c1cc2oc(-c3ccc(F)cc3)c(-c3ncc[nH]3)c2cc1C1CC1)S(C)(=O)=O = 29
CC(C)CCN(c1cc2oc(-c3ccc(Nc4ccccc4)cc3)c(-c3ncc[nH]3)c2cc1C1CC1)S(C)(=O)=O = 85.6
CC(C)CCN(c1cc2oc(-c3ccc(F)cc3)c(C3=NOC(C)N3)c2cc1C1CC1)S(C)(=O)=O (centres unmarked) = 35
CS(=O)(=O)N(CCCc1noc(=O)[nH]1)c1cc2oc(-c3ccc(F)cc3)c(C3=NOCCN3)c2cc1C1CC1 = 44

Q. Consider the compound shown here: "CS(=O)(=O)N(CCCCO)c1cc2oc(-c3ccc(F)cc3)c(-c3ncc[nH]3)c2cc1C1CC1" What is its recorded IC50?
A. 17

Q. Consider the compound shown here: C[S+]([O-])CCN(c1cc2oc(-c3ccc(F)cc3)c(C3=NOCCN3)c2cc1C1CC1)S(C)(=O)=O (centres unmarked) What is its recorded IC50?
A. 49

Q. Consider the compound shown here: "CS(=O)(=O)CCCCN(c1cc2oc(-c3ccc(F)cc3)c(-c3ncc[nH]3)c2cc1C1CC1)S(C)(=O)=O" What is its recorded IC50?
A. 16

Q. Consider the compound shown here: "CS(=O)(=O)N(CCC/C(N)=N/O)c1cc2oc(-c3ccc(F)cc3)c(C3=NOCCN3)c2cc1C1CC1" What is its recorded IC50?
A. 56

---

Test system: HCV 1a-H77 subgenomic replicon
Assay: microbe, parasite or virus in culture
Type: cell-based, HCV genotype 1a
Details: Hepatitis C virus, stable replicon, 5% FBS, absence of human plasma; read-out: Stable Replicon 1a H77 5% FBS EC50
Consider the following compounds and their measured EC50 readings.
Only the number, expressed in nM, is required.

Record excerpt, results attached:
CC(O)CCCN(c1cc2oc(-c3ccc(F)cc3)c(-c3ncc[nH]3)c2cc1C1CC1)S(C)(=O)=O (stereo not drawn) = 6
CS(=O)(=O)Nc1cc2oc(-c3ccc(F)cc3)c(-c3ncc[nH]3)c2cc1C1CC1 = 207
CCS(=O)(=O)CCCN(c1cc2oc(-c3ccc(F)cc3)c(C3=NOCCN3)c2cc1C1CC1)S(C)(=O)=O = 21.8
CS(=O)(=O)N(CCCCO)c1cc2oc(-c3ccc(F)cc3)c(C3=NOCN3)c2cc1C1CC1 = 3.8
CC(C)=CCCN(c1cc2oc(-c3ccc(F)cc3)c(-c3ncc[nH]3)c2cc1C1CC1)S(C)(=O)=O = 48.5
CC(=O)CCCN(c1cc2oc(-c3ccc(F)cc3)c(-c3ncc[nH]3)c2cc1C1CC1)S(C)(=O)=O = 7.9

Q. Consider the compound shown here: "COCCCN(c1cc2oc(-c3ccc(F)cc3)c(-c3ncc[nH]3)c2cc1C1CC1)S(C)(=O)=O" What is its recorded EC50?
A. 13.9

Q. Consider the compound shown here: "CS(=O)(=O)N(CCCCO)c1cc2oc(-c3ccc(F)cc3)c(C3=NOCCN3)c2cc1C1CC1" What is its recorded EC50?
A. 6.3

Q. Consider the compound shown here: "CS(=O)(=O)N(CCC1CCOCC1)c1cc2oc(-c3ccc(F)cc3)c(-c3ncc[nH]3)c2cc1C1CC1" What is its recorded EC50?
A. 11.4

Q. Consider the compound shown here: CC1NC(c2c(-c3ccc(F)cc3)oc3cc(N(CCCCO)S(C)(=O)=O)c(C4CC4)cc23)=NO1 (stereo not drawn) What is its recorded EC50?
A. 8

Q. Consider the compound shown here: "CC(=O)OCCCCCN(c1cc2oc(-c3ccc(F)cc3)c(-c3ncc[nH]3)c2cc1C1CC1)S(C)(=O)=O" What is its recorded EC50?
A. 4.5

Q. Consider the compound shown here: "CCN(CC)CCN(c1cc2oc(-c3ccc(F)cc3)c(C3=NOCCN3)c2cc1C1CC1)S(C)(=O)=O" What is its recorded EC50?
A. 80.9

Q. Consider the compound shown here: "CS(=O)(=O)N(CCCC(F)(F)F)c1cc2oc(-c3ccc(F)cc3)c(C3=NOCCN3)c2cc1C1CC1" What is its recorded EC50?
A. 22

Q. Consider the compound shown here: "CC(C)CCN(c1cc2oc(-c3ccc(F)cc3)c(C3=NOCN3)c2cc1C1CC1)S(C)(=O)=O" What is its recorded EC50?
A. 41.8

Q. Consider the compound shown here: "CNS(=O)(=O)CCCN(c1cc2oc(-c3ccc(F)cc3)c(-c3ncc[nH]3)c2cc1C1CC1)S(C)(=O)=O" What is its recorded EC50?
A. 12.3
